# assay-target: CYP3A4 (Homo sapiens)
# Construct: Human liver microsomes purchased from XenoTech, LLC (Lenexa, Kans.) was used; tissue XenoTech, LLC; host or cells: human liver microsomes
# Sequence (P08684 whole entry): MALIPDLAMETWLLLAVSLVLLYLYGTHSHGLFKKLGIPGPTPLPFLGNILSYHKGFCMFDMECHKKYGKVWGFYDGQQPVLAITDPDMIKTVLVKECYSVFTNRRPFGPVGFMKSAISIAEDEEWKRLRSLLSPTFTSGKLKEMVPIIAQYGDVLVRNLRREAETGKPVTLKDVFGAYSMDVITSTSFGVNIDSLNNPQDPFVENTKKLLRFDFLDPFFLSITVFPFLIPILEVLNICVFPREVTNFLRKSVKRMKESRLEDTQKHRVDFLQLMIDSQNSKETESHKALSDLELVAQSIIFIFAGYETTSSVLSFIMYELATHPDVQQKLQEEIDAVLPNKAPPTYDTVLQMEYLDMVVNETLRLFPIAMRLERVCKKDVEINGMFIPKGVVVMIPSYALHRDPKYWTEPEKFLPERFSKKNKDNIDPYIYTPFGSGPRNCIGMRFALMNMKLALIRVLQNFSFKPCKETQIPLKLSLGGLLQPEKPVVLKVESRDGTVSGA
# test-details: CYP3A4 TDI (human liver microsomes, testosterone 6β-hydroxylation)
# Assay type: in vitro ADME
# experimental-parameters: test compound 30 μM, 60 min vs 0 min preincubation with NADPH, 37° C.
Kindly state Remaining Activity (%) for each of the entries shown.

Go through the list and state Remaining Activity (%) for each entry.
1. CC1(C)C[C@H](c2ccccc2)Nc2c(C(=O)N3CC4CC4(c4cc(Cl)cc(Cl)c4)C3)cnn21 (single isomer, unassigned)
2. CC1(C)C[C@H](c2ccccc2)Nc2c(C(=O)N3CC4CC4(c4ccc(Cl)c(C(F)(F)F)c4)C3)cnn21 (single isomer, unassigned)

1: 87.0%; 2: 81.8%

Go through the list and state Remaining Activity (%) for each entry.
1. CC1(C)C[C@H](c2ccccc2)Nc2c(C(=O)N3CC4CC4(c4ccc(C(F)(F)F)c(Cl)c4)C3)cnn21 (single isomer, unassigned)
2. CC1(C)C[C@H](c2ccccc2)Nc2c(C(=O)N3CC4CC4(c4cc(Cl)cc(C(F)(F)F)c4)C3)cnn21 (single isomer, unassigned)
3. CC1(C)C[C@H](c2ccccc2)Nc2c(C(=O)N3CC4CC4(c4ccc(C(F)(F)F)cc4)C3)cnn21 (single isomer, unassigned)
4. CC1(C)C[C@H](c2ccccc2)Nc2c(C(=O)N3C[C@@H]4C[C@]4(c4ccc(Cl)c(Cl)c4)C3)cnn21

97.7%
86.4%
78.1%
86.0%
